# protocol description: absolute recovery over mixed-bed multilayer solid-phase extraction; higher = better recovery
# settings: wastewater influent; enrichment method: SPE
As shown below, each of these compounds has a reported absolute recovery value.
property name: absolute recovery (%)

>>> reported("CNC(=O)Oc1cc(C)c(SC)c(C)c1 [Methiocarb]")
88.7
>>> reported("CCCC(NOCC)=C1C(=O)CC(C2CCCSC2)CC1=O (configuration not stated) [Cycloxydim]")
92.2
>>> reported("CCCCc1nc(Cl)c(CO)n1Cc1ccc(-c2ccccc2-c2nn[nH]n2)cc1 [Losartan]")
88
>>> reported("COc1cc(OC)n2nc(S(=O)(=O)Nc3c(Cl)ccc(C)c3Cl)nc2n1 [Metosulam]")
92.6
>>> reported("CC(C)OC(=O)C(C)(C)Oc1ccc(C(=O)c2ccc(Cl)cc2)cc1 [Fenofibrat]")
78.4
>>> reported("Cc1cccc(C)c1N(Cn1cccn1)C(=O)CS(=O)(=O)[O-] [Metazachlor-ESA]")
97.6
>>> reported("[O-][n+]1nc(-n2ccnc2)nc2ccc(Cl)cc21 [Triazoxide]")
92.3
>>> reported("C[NH+]=C([N-][N+](=O)[O-])NCc1cnc(Cl)s1 [Clothianidin]")
94.1
>>> reported("Nc1nc(N)[nH+]c(NC2CC2)n1 [Cyromazin]")
91.5
>>> reported("CC(C1CC1)C(O)(Cn1cncn1)c1ccc(Cl)cc1 (configuration not stated) [Cyproconazol]")
93.5
>>> reported("CN(C(=O)CO)c1c(I)c(C(=O)NCC(O)CO)c(I)c(C(=O)NCC(O)CO)c1I (configuration not stated) [Iomeprol]")
52.4
>>> reported("CSC1=NC(C)(c2ccccc2)C(=O)N1Nc1ccccc1 (configuration not stated) [Fenamidone]")
91.6

---

# protocol description: absolute recovery over mixed-bed multilayer solid-phase extraction; higher = better recovery
# settings: surface water; enrichment method: SPE
Reported values of absolute recovery for individual entries
property name: absolute recovery (%)

>>> reported("NC(=O)Nc1ccc(Cl)c(Cl)c1")
100
>>> reported("COc1ccc(C(C[NH+](C)C)C2(O)CCCCC2)cc1 (stereo not drawn)")
96.8
>>> reported("CC(O)(CS(=O)(=O)c1ccc(F)cc1)C(=O)Nc1ccc(C#N)c(C(F)(F)F)c1 (stereo not drawn)")
97
>>> reported("C[NH+](C)CCCC1(c2ccc(F)cc2)OCc2cc(C#N)ccc21 (stereo not drawn)")
96.1
>>> reported("COC=C(C(=O)OC)c1ccccc1COc1cccc(C(F)(F)F)n1")
94.9
>>> reported("CCOP(=S)(OCC)Oc1cc(C)nc(C(C)C)n1")
86.9
>>> reported("O=C([O-])c1ccc(-c2ccccc2-c2nn[nH]n2)cc1")
101
>>> reported("CC(C)c1nc(CN(C)C(=O)NC(C(=O)NC(Cc2ccccc2)CC(O)C(Cc2ccccc2)NC(=O)OCc2cncs2)C(C)C)cs1 (stereo not drawn)")
92.4

---

# protocol description: absolute recovery over mixed-bed multilayer solid-phase extraction; higher = better recovery
# settings: nanopure water; enrichment method: SPE
Rule: absolute recovery of 90% or more gives 1; anything lower gives -1.

>>> label_class("NC(=O)c1ncn(C2OC(CO)C(O)C2O)n1 (stereo not given)")
-1
>>> label_class("CCc1cccc2c3c([nH]c12)C(CC)(CC(=O)[O-])OCC3 (stereo not given)")
-1
>>> label_class("CC1=CC(=O)[N-]S(=O)(=O)O1")
1
>>> label_class("CCOCN(C(=O)CCl)c1c(C)cccc1CC")
1
>>> label_class("O=C([O-])c1cccc(Oc2ccccc2)c1")
1
>>> label_class("O=C([O-])c1cc(Oc2ccc(Cl)cc2Cl)ccc1[N+](=O)[O-]")
-1
>>> label_class("CS(=O)(=O)c1ccc(C(=O)[C-]2C(=O)CCCC2=O)c(Cl)c1")
1

---

# protocol description: absolute recovery over mixed-bed multilayer solid-phase extraction; higher = better recovery
# settings: wastewater effluent; enrichment method: SPE
Quick reference: absolute recovery of the listed items.
property name: absolute recovery (%)

>>> reported("Cc1cccc(Nc2ccncc2S(=O)(=O)[N-]C(=O)NC(C)C)c1")
92.3
>>> reported("COCCc1ccc(OCC(O)C[NH2+]C(C)C)cc1 (configuration not stated)")
93.3
>>> reported("CCNc1nc(O)nc(NCC)n1 [Simazin-2-hydroxy]")
88.3
>>> reported("CCNc1nc(N)nc(Cl)n1")
91.3
>>> reported("CC[NH+]1CCCC1CNC(=O)c1cc(S(N)(=O)=O)ccc1OC (configuration not stated)")
77.1
>>> reported("CCC(=O)OC(OP(=O)(CCCCc1ccccc1)CC(=O)N1CC(C2CCCCC2)CC1C(=O)[O-])C(C)C (configuration not stated)")
51.5
>>> reported("CC(C)[NH2+]CC(O)COc1ccc(CC(N)=O)cc1 (configuration not stated)")
87.4
>>> reported("NC(=O)c1ncn(C2OC(CO)C(O)C2O)n1 (configuration not stated)")
33.2
>>> reported("CC(Oc1ccc(Oc2ncc(C(F)(F)F)cc2Cl)cc1)C(=O)[O-] (configuration not stated)")
84.4
>>> reported("CC1(C)CCC(Cc2ccc(Cl)cc2)C1(O)Cn1cncn1 (configuration not stated)")
94.9
>>> reported("CON(C)C(=O)Nc1ccc(Cl)c(Cl)c1")
92.4
>>> reported("CCCOC(=O)NCCC[NH+](C)C")
84.1

---

Each entry below carries its recorded absolute recovery.
# protocol description: absolute recovery over mixed-bed multilayer solid-phase extraction; higher = better recovery
# settings: surface water; enrichment method: SPE
property name: absolute recovery

>>> reported("CC(C)=NOCCOC(=O)C(C)Oc1ccc(Oc2cnc3cc(Cl)ccc3n2)cc1 (configuration not stated) [Propaquizafop]")
"91.4%"
>>> reported("CC(C)C([NH3+])C(=O)OCC(CO)OCn1cnc2c(=O)[nH+]c(N)[nH]c21 (configuration not stated) [Valganciclovir]")
"63.7%"
>>> reported("O=c1ccc(=O)[nH][n-]1 [Maleic-hydrazide]")
"12.8%"
>>> reported("C[NH2+]CC(O)c1cccc(O)c1 (configuration not stated) [Phenylephrine]")
"82%"
>>> reported("CC(C)c1ccc(NC(N)=O)cc1 [Isoproturon-didemethyl (=1-(4-Isoprophenyl)urea)]")
"94.1%"
>>> reported("CN(CC(=O)[O-])S(=O)(=O)C(F)(F)C(F)(F)C(F)(F)C(F)(F)C(F)(F)C(F)(F)C(F)(F)C(F)(F)F [N-MeFOSAA]")
"80%"
>>> reported("Clc1ccccc1C[NH+]1CCc2sccc2C1 [Ticlopidin]")
"85.9%"

---

Listing of recorded absolute recovery by entry.
# protocol description: absolute recovery over mixed-bed multilayer solid-phase extraction; higher = better recovery
# settings: wastewater influent; enrichment method: SPE
property name: absolute recovery (%)

>>> reported("CCOCCN(C(=O)CCl)C(=C(C)C)c1ccccc1 [Pethoxamid]")
99.6
>>> reported("CCOc1nc2cccc(C(=O)[O-])c2n1Cc1ccc(-c2ccccc2-c2nnn[n-]2)cc1 [Candesartan]")
92.5
>>> reported("NC(=O)c1c(Cl)cccc1Cl [2-6-Dichlorbenzamid]")
93.9
>>> reported("CNC(=O)Nc1ccc(Cl)c(Cl)c1 [Diuron-desmonomethyl (=DCPMU)]")
86.1
>>> reported("Cc1cccc(C)c1NC(=O)C1CCCC[NH+]1C (stereo not given) [Mepivacaine]")
89.6
>>> reported("CCC1OC(=O)C(C)C(OC2CC(C)(OC)C(O)C(C)O2)C(C)C(OC2OC(C)CC([NH+](C)C)C2O)C(C)(O)CC(C)C(=O)C(C)C(O)C1(C)O (stereo not given) [Erythromycin]")
83.3
>>> reported("Nc1nnc(-c2cccc(Cl)c2Cl)c(N)n1 [Lamotrigin]")
96.7
>>> reported("N#Cc1nn(-c2c(Cl)cc(C(F)(F)F)cc2Cl)c(N)c1SC(F)(F)F [Fipronil-sulfid]")
121
>>> reported("Cc1cc(N(C2OC(C(=O)[O-])C(O)C(O)C2O)S(=O)(=O)c2ccc(N)cc2)no1 (stereo not given) [Sulfamethoxazole-N1-Glucuronide]")
66.1
>>> reported("CCC1OC(=O)C(C)C(OC2CC(C)(OC)C(O)C(C)O2)C(C)C(OC2OC(C)CC([N+](C)(C)[O-])C2O)C(C)(OC)CC(C)C(=O)C(C)C(O)C1(C)O (stereo not given) [Clarithromycin-N-Oxide]")
93.9
>>> reported("O=C([O-])c1cc(Oc2ccc(Cl)cc2Cl)ccc1[N+](=O)[O-] [Bifenox-acid]")
124
>>> reported("O=c1[nH+]c[n-]c2c1ncn2C1CCC(CO)O1 (stereo not given) [Didanosin]")
102
>>> reported("CC1(C)C(=O)Oc2ccc(OS(C)(=O)=O)cc21 [Ethofumesat-2-keto]")
88.3
>>> reported("CCc1cccc(C)c1N1C(=O)COCC1C (stereo not given) [Metolachlor-Morpholinon]")
91.2
>>> reported("Fc1ccc(Oc2ccnc3cc(Cl)cc(Cl)c23)cc1 [Quinoxyfen]")
53.1
>>> reported("Cc1ccc(-c2c(Cl)nc(C#N)n2S(=O)(=O)N(C)C)cc1 [Cyazofamid]")
63.2
>>> reported("COCCCOc1cc(CC(CC([NH3+])C(O)CC(C(=O)NCC(C)(C)C(N)=O)C(C)C)C(C)C)ccc1OC (stereo not given) [Aliskiren]")
72.9
>>> reported("CON(C)C(=O)Nc1ccc(Cl)c(Cl)c1 [Linuron]")
93.3
>>> reported("CC(C)(C)Nc1nc(N)nc(O)n1 [Terbutylazin-desethyl-2-hydroxy]")
94.1
>>> reported("Cc1cc(C)nc(Nc2ccccc2)n1 [Pyrimethanil]")
90.3
